The measured values listed here are drawn from ChEMBL document CHEMBL5058577.

Items are presented alongside their recorded Population Apoptotic (%).
# Tested on: HEK-293T
# assay-info: Multiplex assay against HEK293T
# Type: toxicity, cell-based
# applied-conditions: human, 48 h, 1 µM, compound concentration 1 uM, replicate 2
The answer is to be given in %; state only the numeric part.

* COc1ccc2[nH]c(I)c(CCNC(C)=O)c2c1 [IODOMELATONIN] | 31
* CCCCC[C@H](O)/C=C/[C@H]1[C@H](O)CC(=O)[C@@H]1CCCCCCC(=O)O [ALPROSTADIL] | 13
* CCC(=O)OCC(=O)[C@@]1(OC(=O)CC)[C@@H](C)C[C@H]2[C@@H]3CCC4=CC(=O)C=C[C@]4(C)[C@@]3(Cl)[C@@H](O)C[C@@]21C [BECLOMETHASONE DIPROPIONATE] | 31
* Cc1cc(NC(=O)NCCN2CCC(O)(Cc3ccccc3)CC2)c2ccccc2n1 [PALOSURAN] | 32
* COCCCN1CCC(NC(=O)c2cc(Cl)c(N)c3c2OCC3)CC1 [PRUCALOPRIDE] | 21

// `CN1CCC(C(=O)c2cccc(NC(=O)c3c(F)cc(F)cc3F)n2)CC1` : Population Apoptotic (%) value = 34

// C=CCN1C[C@H](C(=O)N(CCCN(C)C)C(=O)NCC)C[C@@H]2c3cccc4[nH]cc(c34)C[C@H]21 [CABERGOLINE] : Population Apoptotic (%) value = 35

###

Items are presented alongside their recorded Population Hoechst High Intensity Objects (%).
# Tested on: Fibroblast
# assay-info: Multiplex assay against human fibroblast
# Type: toxicity, cell-based
# applied-conditions: 48 h, 10 µM, compound concentration 10 uM, replicate 1
The answer is to be given in %; state only the numeric part.

Example cases with answers are listed next.
- COc1cc(Nc2ncc3c(n2)-c2ccc(Cl)cc2C(c2c(F)cccc2OC)=NC3)ccc1C(=O)O [ALISERTIB]: 23
- CC(F)(F)CN1CCOc2c(nn(-c3ccccc3Cl)c2-c2ccc(Cl)cc2)C1=O: 1
- O=C(NCCNCC(O)COc1ccc(O)cc1)N1CCOCC1.O=C(NCCNCC(O)COc1ccc(O)cc1)N1CCOCC1.O=C(O)/C=C/C(=O)O (centres undefined) [XAMOTEROL FUMARATE]: 4

Now look at this one.
// `C[C@@H]1CC(=O)Nc2cccc(-c3ccc4c(c3)c(-c3cnn(C)c3)nn4C)c2N1` : Population Hoechst High Intensity Objects (%) value = 3

###

# Tested on: HEK-293T
# assay-info: Multiplex assay against HEK293T
# Type: toxicity, cell-based
# applied-conditions: human, 48 h, 10 µM, compound concentration 10 uM, replicate 1
Could you mark each record criterion met if its Population Mitochondria Different-Phenotype (%) falls strictly under 40%, and criterion not met if it equals or exceeds it?

# input Does the reported Population Mitochondria Different-Phenotype (%) of CCn1c(-c2nc3cc(C(=O)N4CCCC(N)C4)ccc3n2C)cc2ccccc21.Cl (centres undefined) stay below 40%?
# output criterion not met

# input Does the reported Population Mitochondria Different-Phenotype (%) of `CN1CCC(C(=O)c2cccc(NC(=O)c3c(F)cc(F)cc3F)n2)CC1` stay below 40%?
# output criterion met

# input Does the reported Population Mitochondria Different-Phenotype (%) of `CCCCCCNC(=O)Nc1ccc(S(=O)(=O)Nc2ccc(CCNC[C@H](O)COc3ccc(O)cc3)cc2)cc1` stay below 40%?
# output criterion met
